Origin of the recorded values: patent US20230339851A1

Here we list compounds with their recorded IC50 when tested on human CXCR6 (Homo sapiens).
Sequence (O00574 whole entry): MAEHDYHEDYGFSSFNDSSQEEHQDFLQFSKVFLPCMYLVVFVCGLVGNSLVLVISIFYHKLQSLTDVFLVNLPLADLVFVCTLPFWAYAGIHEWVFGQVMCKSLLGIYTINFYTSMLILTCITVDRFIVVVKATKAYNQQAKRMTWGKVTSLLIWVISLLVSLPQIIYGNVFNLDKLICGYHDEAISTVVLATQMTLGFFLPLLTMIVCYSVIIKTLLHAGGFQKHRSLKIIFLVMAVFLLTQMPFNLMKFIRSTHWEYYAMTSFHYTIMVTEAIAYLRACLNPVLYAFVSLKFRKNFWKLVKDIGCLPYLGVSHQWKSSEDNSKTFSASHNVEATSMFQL

Check out these entries, answers already filled in.
INSERT INTO results (compound, test_system, assay_result) VALUES
  ('Cc1cc(NC(=O)C2(C)CCCCC2)ccc1S(=O)(=O)Nc1cccc(C(F)(F)F)c1', 'human CXCR6 (Homo sapiens)', '2000 to 20000 nM'),
  ('CCOc1cc(NC(=O)[C@@H](NS(C)(=O)=O)C(C)CC)ccc1S(=O)(=O)Nc1cccc(OC(F)(F)F)c1 (stereo partly drawn)', 'human CXCR6 (Homo sapiens)', '2000 to 20000 nM'),
  ('COc1cc(NC(=O)[C@@H]2CCOC[C@H]2C)ccc1S(=O)(=O)Nc1cccc(OC(F)(F)F)c1 (racemic)', 'human CXCR6 (Homo sapiens)', '200 to 750 nM'),
  ('CCOc1cc(NC(=O)[C@@H](O)C(C)C)ccc1S(=O)(=O)Nc1cccc(C(F)(F)F)c1C', 'human CXCR6 (Homo sapiens)', '2000 to 20000 nM'),
  ('COc1cc(NC(=O)c2ccnn2C)ccc1S(=O)(=O)Nc1ccc(Cl)c(Cl)c1', 'human CXCR6 (Homo sapiens)', '750 to 2000 nM'),
  ('CCOc1cc(NC(=O)C(C(=O)O)C2CCC2)ccc1S(=O)(=O)Nc1cccc(OC(F)(F)F)c1 (stereo not drawn)', 'human CXCR6 (Homo sapiens)', '≤ 200 nM'),
  ('CCOC(=O)[C@H]1CC=CC[C@@H]1C(=O)Nc1ccc(S(=O)(=O)Nc2cccc(OC(F)(F)F)c2)c(OCC)c1', 'human CXCR6 (Homo sapiens)', '≤ 200 nM'),
  ('COc1cc(NC(=O)c2cc(C)nn2C)ccc1S(=O)(=O)Nc1cccc(C(F)(F)F)c1', 'human CXCR6 (Homo sapiens)', '200 to 750 nM'),
  ('COc1cc(NC(=O)c2ccnn2C)ccc1S(=O)(=O)Nc1cccc(N(C)C)c1', 'human CXCR6 (Homo sapiens)', '750 to 2000 nM'),
  ('COc1cc(NC(=O)[C@@H]2CCCC[C@H]2O)ccc1S(=O)(=O)Nc1cccc(OC(F)(F)F)c1', 'human CXCR6 (Homo sapiens)', '750 to 2000 nM');

// IC50 (human CXCR6 (Homo sapiens)) for `CCOc1cc(NC(=O)[C@@H](CO)C(C)C)ccc1S(=O)(=O)Nc1ccc(C)c(C(C)C)c1` = ≤ 200 nM

Field IC50 (human CXCR6 (Homo sapiens)), entry CCOc1cc(NC(=O)[C@@H](NC(=O)C(F)(F)F)C(C)CC)ccc1S(=O)(=O)Nc1cccc(OC(F)(F)F)c1 (stereo partly drawn) : ≤ 200 nM

The reported human CXCR6 (Homo sapiens) IC50 of `Cc1cc(NC(=O)c2cccnc2C)ccc1S(=O)(=O)Nc1cccc(C(F)(F)F)c1` is 750 to 2000 nM
